Target desc: canine FcRn (FcRn large subunit with canine beta-2-microglobulin) (canine)
Assay name: SPR pH 6.0, SASA-Fc captured on BSA, FcRn 100-800 nM
Measured parameter: Kd (nM)
Enter your answer as a number in nM; do not include the unit.

Example results:
{"Binder": "canine IgGB Fc (CH2-CH3) T286W with N-terminal SASA tag (Fc fusion, part only; not given: SASA tag, not shown: another chain or arm of the molecule; small tags and cut ends) Fc: APEMLGGPSVFIFPPKPKDTLLIARTPEVTCVVVDLDPEDPEVQISWFVDGKQMQWAKTQPREEQFNGTYRVVSVLPIGHQDWLKGKQFTCKVNNKALPSPIERTISKARGQAHQPSVYVLPPSREELSKNTVSLTCLIKDFFPPDIDVEWQSNGQQEPESKYRTTPPQLDEDGSYFLYSKLSVDKSRWQRGDTFICAVMHEALHNHYTQESLSHSPGK", "Result unit": "nM", "Reported value": 565}
{"Binder": "canine IgGB Fc (CH2-CH3) YTE variant (L252Y/A254T/T256E) with N-terminal SASA tag (Fc fusion, part only; not given: SASA tag, not shown: another chain or arm of the molecule; small tags and cut ends) Fc: APEMLGGPSVFIFPPKPKDTLYITREPEVTCVVVDLDPEDPEVQISWFVDGKQMQTAKTQPREEQFNGTYRVVSVLPIGHQDWLKGKQFTCKVNNKALPSPIERTISKARGQAHQPSVYVLPPSREELSKNTVSLTCLIKDFFPPDIDVEWQSNGQQEPESKYRTTPPQLDEDGSYFLYSKLSVDKSRWQRGDTFICAVMHEALHNHYTQESLSHSPGK", "Result unit": "nM", "Reported value": 210}
{"Binder": "canine IgGB Fc (CH2-CH3) T286L with N-terminal SASA tag (Fc fusion, part only; not given: SASA tag, not shown: another chain or arm of the molecule; small tags and cut ends) Fc: APEMLGGPSVFIFPPKPKDTLLIARTPEVTCVVVDLDPEDPEVQISWFVDGKQMQLAKTQPREEQFNGTYRVVSVLPIGHQDWLKGKQFTCKVNNKALPSPIERTISKARGQAHQPSVYVLPPSREELSKNTVSLTCLIKDFFPPDIDVEWQSNGQQEPESKYRTTPPQLDEDGSYFLYSKLSVDKSRWQRGDTFICAVMHEALHNHYTQESLSHSPGK", "Result unit": "nM", "Reported value": 777}

# next binder below
INPUT: GET /values?readout=Kd&item= wild-type canine IgGB Fc (CH2-CH3) with N-terminal SASA tag (Fc fusion, part only; not given: SASA tag, not shown: another chain or arm of the molecule; small tags and cut ends) Fc: APEMLGGPSVFIFPPKPKDTLLIARTPEVTCVVVDLDPEDPEVQISWFVDGKQMQTAKTQPREEQFNGTYRVVSVLPIGHQDWLKGKQFTCKVNNKALPSPIERTISKARGQAHQPSVYVLPPSREELSKNTVSLTCLIKDFFPPDIDVEWQSNGQQEPESKYRTTPPQLDEDGSYFLYSKLSVDKSRWQRGDTFICAVMHEALHNHYTQESLSHSPGK
OUTPUT: 1820
